Data origin, for the record: patent US8937058B2

Quick record: pIC50, progesterone receptor (Homo sapiens (Human)).
pIC50: −log10 of the molar value.

>  <Molecule>
C[C@@H]1CC2=CC(=O)CC[C@@H]2[C@H]2CC[C@@]3(C)[C@@H](CC[C@@]34C=CC(=O)O4)[C@@H]21 (stereo in doubt) [Example 2A]

>  <pIC50>
6.51

$$$$
>  <Molecule>
CC[C@]12CC[C@H]3[C@@H]([C@H](C4CC4)CC4=CC(=O)CC[C@@H]43)[C@@H]1CC[C@@]21C=CC(=O)O1 (stereo in doubt) [Example 11A]

>  <pIC50>
6.30

$$$$
>  <Molecule>
C[C@]12CC[C@H]3[C@@H]([C@H](C4CC4)CC4=CC(=O)CC[C@@H]43)[C@@H]1CC[C@@]21C=CC(=O)O1 (stereo in doubt) [Example 12A]

>  <pIC50>
5.59

$$$$
>  <Molecule>
C[C@]12CC[C@H]3[C@@H](CCC4=C(Cl)C(=O)CC[C@@H]43)[C@@H]1CC[C@@]21C=CC(=O)O1 [Example 14]

>  <pIC50>
5.92

$$$$
>  <Molecule>
CC[C@]12CC[C@H]3[C@@H](C=CC4=CC(=O)CC[C@@H]43)[C@@H]1CC[C@@]21C=CC(=O)O1 (stereo in doubt) [Example 7]

>  <pIC50>
6.96

$$$$
>  <Molecule>
C=C[C@@H]1CC2=CC(=O)CC[C@@H]2[C@H]2CC[C@@]3(C)[C@@H](CC[C@@]34C=CC(=O)O4)[C@@H]21 (stereo in doubt) [Example 4A]

>  <pIC50>
6.12

$$$$

====

# Study system: androgen receptor (Homo sapiens (Human), UniProt P10275)
# Sequence (P10275 whole entry, species assumed): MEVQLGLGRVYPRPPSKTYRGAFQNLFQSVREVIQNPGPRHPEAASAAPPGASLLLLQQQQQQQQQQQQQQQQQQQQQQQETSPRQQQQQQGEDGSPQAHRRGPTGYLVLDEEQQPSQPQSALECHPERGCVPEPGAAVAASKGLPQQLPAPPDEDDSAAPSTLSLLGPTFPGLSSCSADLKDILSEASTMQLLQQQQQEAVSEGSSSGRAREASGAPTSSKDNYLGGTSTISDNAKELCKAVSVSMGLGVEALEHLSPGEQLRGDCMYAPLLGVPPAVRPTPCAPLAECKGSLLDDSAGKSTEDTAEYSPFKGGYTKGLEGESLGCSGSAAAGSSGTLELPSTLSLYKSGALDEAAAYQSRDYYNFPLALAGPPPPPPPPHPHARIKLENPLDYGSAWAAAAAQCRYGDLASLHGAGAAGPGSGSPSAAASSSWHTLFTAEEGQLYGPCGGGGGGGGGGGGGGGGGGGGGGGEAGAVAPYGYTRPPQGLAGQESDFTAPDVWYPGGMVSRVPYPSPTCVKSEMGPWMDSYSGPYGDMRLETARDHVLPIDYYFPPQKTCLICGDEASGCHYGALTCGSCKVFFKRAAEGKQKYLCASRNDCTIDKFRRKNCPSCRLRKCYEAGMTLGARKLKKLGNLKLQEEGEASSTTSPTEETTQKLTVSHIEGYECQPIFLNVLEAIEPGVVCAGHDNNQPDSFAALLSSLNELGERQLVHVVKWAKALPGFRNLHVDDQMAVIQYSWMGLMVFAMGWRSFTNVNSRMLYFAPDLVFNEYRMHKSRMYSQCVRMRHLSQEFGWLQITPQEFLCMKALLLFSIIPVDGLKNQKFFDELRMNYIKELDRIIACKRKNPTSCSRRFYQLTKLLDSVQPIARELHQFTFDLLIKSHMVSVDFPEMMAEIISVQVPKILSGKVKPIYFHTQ
# Test protocol: cell-based
# Condition summary: in-vitro transactivation, PC3 cells

>  <Molecule>
CC[C@]12CC[C@H]3[C@@H](C[C@@H](CO)C4=CC(=O)CC[C@@H]43)[C@@H]1CC[C@@]21C=CC(=O)O1

>  <Study system>
androgen receptor (Homo sapiens (Human), UniProt P10275)

>  <Unit tag>
%

>  <Androgen receptor Agonism efficacy>
5

$$$$
>  <Molecule>
CC[C@@H]1CC2=CC(=O)CC[C@@H]2[C@H]2CC[C@@]3(C)[C@@H](CC[C@@]34C=CC(=O)O4)[C@H]12 (stereo in doubt)

>  <Study system>
androgen receptor (Homo sapiens (Human), UniProt P10275)

>  <Unit tag>
%

>  <Androgen receptor Agonism efficacy>
30.25

$$$$
>  <Molecule>
C[C@]12CC[C@H]3[C@@H](CCC4=CC(=O)CC[C@@H]43)[C@@H]1CC1(CC1)[C@@]21C=CC(=O)O1 (stereo in doubt)

>  <Study system>
androgen receptor (Homo sapiens (Human), UniProt P10275)

>  <Unit tag>
%

>  <Androgen receptor Agonism efficacy>
37.8

$$$$
>  <Molecule>
C[C@]12CC[C@H]3[C@@H](C=CC4=CC(=O)CC[C@@H]43)[C@@H]1CC[C@@]21C=CC(=O)O1 (stereo in doubt)

>  <Study system>
androgen receptor (Homo sapiens (Human), UniProt P10275)

>  <Unit tag>
%

>  <Androgen receptor Agonism efficacy>
44.27

$$$$
>  <Molecule>
C[C@]12CC[C@H]3[C@@H](CC4(CC4)C4=CC(=O)CC[C@@H]43)[C@@H]1CC[C@@]21C=CC(=O)O1

>  <Study system>
androgen receptor (Homo sapiens (Human), UniProt P10275)

>  <Unit tag>
%

>  <Androgen receptor Agonism efficacy>
87.91

$$$$
>  <Molecule>
CC[C@]12CC[C@H]3[C@@H]([C@H](C4CC4)CC4=CC(=O)CC[C@@H]43)[C@@H]1CC[C@@]21C=CC(=O)O1 (stereo in doubt) [Example 11A]

>  <Study system>
androgen receptor (Homo sapiens (Human), UniProt P10275)

>  <Unit tag>
%

>  <Androgen receptor Agonism efficacy>
41.38

$$$$
>  <Molecule>
C[C@]12CC[C@H]3[C@@H](CCC4=C(Cl)C(=O)CC[C@@H]43)[C@@H]1CC[C@@]21C=CC(=O)O1

>  <Study system>
androgen receptor (Homo sapiens (Human), UniProt P10275)

>  <Unit tag>
%

>  <Androgen receptor Agonism efficacy>
22.74

$$$$
>  <Molecule>
C=C[C@@H]1CC2=CC(=O)CC[C@@H]2[C@H]2CC[C@@]3(CC)[C@@H](CC[C@@]34C=CC(=O)O4)[C@@H]21 (stereo in doubt) [Example 10A]

>  <Study system>
androgen receptor (Homo sapiens (Human), UniProt P10275)

>  <Unit tag>
%

>  <Androgen receptor Agonism efficacy>
74.78

$$$$
>  <Molecule>
C[C@]12CC[C@H]3[C@@H]([C@H](C4CC4)CC4=CC(=O)CC[C@@H]43)[C@@H]1CC[C@@]21C=CC(=O)O1 (stereo in doubt) [Example 12A]

>  <Study system>
androgen receptor (Homo sapiens (Human), UniProt P10275)

>  <Unit tag>
%

>  <Androgen receptor Agonism efficacy>
21.13

$$$$
>  <Molecule>
CC[C@]12CC[C@H]3[C@@H]([C@H](C)CC4=CC(=O)CC[C@@H]43)[C@@H]1CC[C@@]21C=CC(=O)O1 (stereo in doubt)

>  <Study system>
androgen receptor (Homo sapiens (Human), UniProt P10275)

>  <Unit tag>
%

>  <Androgen receptor Agonism efficacy>
78.75

$$$$
